# System: OVCAR-3 ovarian
# METHOD SUMMARY: NCI-60 one-dose screen, 48 h (100 = growth as untreated, 0 = no growth, -100 = all killed)
# CONDITIONS USED: 10 µM unless noted
Compounds without any hit were thinned out: in the full panel of roughly 83,000, 20% have a hit.
OBSERVATION TYPE: growth (%)
Response body: numeric value in %, unit text excluded.

CCOC(=O)c1ccc(N2C(=O)C(Cl)(c3ccccc3)C2c2ccco2)cc1 (configuration not stated)	78.8
Cc1ccc(NC(=S)N/C=C(\c2ccccc2)S(=O)Cc2ccccc2)c(C)c1 (configuration not stated)	106
O=C(O)C#Cc1ccc(Cl)cc1	110
CCCCCCC(C)CC1=C(O)c2ccccc2C(=O)C1=O (configuration not stated)	46.5
NNC(=O)Nc1ccccc1	105

growth recorded for this compound, `O=[N+]([O-])c1ccc(N2CCN=N2)cc1` , is 99.8

Summary for this compound, `Cc1ccc(S(=O)(=O)n2ccnc2)cc1` : growth is 101

Noted for `CCOC(=O)c1ccncc1` : its growth reads 105

Record O=C(N=C1C(=O)C2(CCCCC2)C2(N=C(c3ccccc3)OC2=O)C12CCCCC2)c1ccccc1 (configuration not stated) . Reported growth: 63.6

Note to self: growth recorded for O=C1C2=C(Nc3cc(Cl)ccc3N2)OC1c1c[nH]c2ccc(COc3ccccc3)cc12 (configuration not stated) was 55.1

So, `Cc1c(O)nc(N)[nH]c1=O` ? Its growth was 121

growth for `COC(=O)c1cc(C(=O)OC)cc([N+](=O)[O-])c1` is 120
